system: ATS189; experiment: qHTS profiling for inhibitors of Plasmodium falciparum proliferation (AID 504749); note: nearly all actives have a fitted effect of over 60% in size; details: P. falciparum in erythrocytes, SYBR Green DNA, 72 h; series mostly up to 28.7 µM
Inconclusive results are not listed. Activity calls are given as the source filed them. Calls come from the whole dose curve; as a rule, active = well fitted inhibition curve with a large enough effect; inconclusive = small, poorly fitted or top-dose-only effect; inactive = flat fitted curve, though single readings scatter.
Classes used: 1 for active, -1 for inactive

| Mol smiles | Class name |
| --- | --- |
| CC1=C(/C=C/C(C)=C/C=C/C(C)=C/C(=O)Nc2ccc(O)cc2)C(C)(C)CCC1 | 1 |
| O=C(O)c1c(Cl)c(Cl)c(Cl)c(Cl)c1-c1c2cc(I)c(=O)c(I)c-2oc2c(I)c(O)c(I)cc12 | -1 |
| C[N+](C)(C)CCCCCC[N+](C)(C)C | -1 |
